pEC50: −log10 of the molar value.
A short record of pEC50 observed with UniProt P30543 follows.
QUANTITY: pEC50

Example entries and their recorded answers appear below.
{"MOLECULE": "COc1ccc(/C=C/C=N/Nc2nc(N)c3ncn([C@@H]4O[C@H](CO)[C@@H](O)[C@H]4O)c3n2)cc1", "pEC50": 6.17}
{"MOLECULE": "COc1ccccc1/C=C/C=N/Nc1nc(N)c2ncn([C@@H]3O[C@H](CO)[C@@H](O)[C@H]3O)c2n1", "pEC50": 6.28}
{"MOLECULE": "CN(C)c1ccc(/C=C/C=N/Nc2nc(N)c3ncn([C@@H]4O[C@H](CO)[C@@H](O)[C@H]4O)c3n2)cc1", "pEC50": 6.14}

(I) Nc1nc(N/N=C/C=C/c2ccco2)nc2c1ncn2[C@@H]1O[C@H](CO)[C@@H](O)[C@H]1O
(II) Nc1nc(N/N=C/C=C/c2ccccc2)nc2c1ncn2[C@@H]1O[C@H](CO)[C@@H](O)[C@H]1O
Inquiry: For I and II , which recorded pEC50 is lower? Your answer should be the label attached to the chosen record.
Reply text: I

(I) Nc1nc(N/N=C/c2ccco2)nc2c1ncn2[C@@H]1O[C@H](CO)[C@@H](O)[C@H]1O
(II) Nc1nc(N/N=C/C=C/c2ccccc2[N+](=O)[O-])nc2c1ncn2[C@@H]1O[C@H](CO)[C@@H](O)[C@H]1O
Inquiry: When their pEC50 values are compared, which is larger, I or II ? Refer to your chosen entry by its label in the reply.
Reply text: I

---

target: Adenosine receptor A1 (Rattus norvegicus, UniProt P25099); assay: Activity at Adenosine A1 receptor of rat atria
Sequence (P25099 whole entry): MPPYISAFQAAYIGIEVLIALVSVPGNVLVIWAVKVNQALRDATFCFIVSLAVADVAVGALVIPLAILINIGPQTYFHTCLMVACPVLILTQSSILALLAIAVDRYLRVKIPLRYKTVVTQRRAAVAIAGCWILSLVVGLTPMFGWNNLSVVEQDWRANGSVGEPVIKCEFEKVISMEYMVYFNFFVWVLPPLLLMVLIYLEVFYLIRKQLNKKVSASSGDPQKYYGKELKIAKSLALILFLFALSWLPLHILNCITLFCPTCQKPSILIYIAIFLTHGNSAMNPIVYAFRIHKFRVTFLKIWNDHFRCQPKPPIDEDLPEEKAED
Consider the following compounds and their measured EC50 readings.

{"COMPOUND": "Nc1nc(N/N=C/C=C/c2ccccc2)nc2c1ncn2[C@@H]1O[C@H](CO)[C@@H](O)[C@H]1O", "QUANTITY": "EC50", "RESULT": "> 10 µM"}

Inquiry: Lab note: need EC50 with Adenosine receptor A1 (Rattus norvegicus, UniProt P25099) for entry `COc1cc(/C=C/C=N/Nc2nc(N)c3ncn([C@@H]4O[C@H](CO)[C@@H](O)[C@H]4O)c3n2)ccc1O` , please look it up.
Reply text: 4.89 µM

Inquiry: Checklist item: EC50 tested on Adenosine receptor A1 (Rattus norvegicus, UniProt P25099), entry `CN(C)c1ccc(/C=C/C=N/Nc2nc(N)c3ncn([C@@H]4O[C@H](CO)[C@@H](O)[C@H]4O)c3n2)cc1` , value?
Reply text: 0.866 µM

---

molecular target: Adenosine receptor A2a (Rattus norvegicus, UniProt P30543)
Sequence (P30543 whole entry): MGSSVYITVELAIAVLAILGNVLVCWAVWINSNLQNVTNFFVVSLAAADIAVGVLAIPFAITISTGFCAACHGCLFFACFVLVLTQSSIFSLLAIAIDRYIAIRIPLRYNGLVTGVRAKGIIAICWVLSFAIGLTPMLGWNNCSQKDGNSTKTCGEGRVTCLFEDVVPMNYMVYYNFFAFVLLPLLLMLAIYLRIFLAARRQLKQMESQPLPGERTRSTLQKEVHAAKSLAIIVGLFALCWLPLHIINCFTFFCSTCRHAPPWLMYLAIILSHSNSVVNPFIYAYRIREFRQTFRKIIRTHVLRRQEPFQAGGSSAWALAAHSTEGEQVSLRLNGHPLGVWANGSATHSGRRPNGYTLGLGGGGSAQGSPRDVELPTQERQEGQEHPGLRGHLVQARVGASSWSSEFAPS
QUANTITY: EC50 (nM)

(A) COc1cc(/C=C/C=N/Nc2nc(N)c3ncn([C@@H]4O[C@H](CO)[C@@H](O)[C@H]4O)c3n2)ccc1O
(B) Nc1nc(N/N=C/C=C(c2ccccc2)c2ccccc2)nc2c1ncn2[C@@H]1O[C@H](CO)[C@@H](O)[C@H]1O
(C) Nc1nc(N/N=C/C=C/c2ccc([N+](=O)[O-])cc2)nc2c1ncn2[C@@H]1O[C@H](CO)[C@@H](O)[C@H]1O
Inquiry: Reorder: EC50, max to min. Returns: the labels arranged in the requested order.
Reply text: B, C, A

---

Below are Ki values measured for UniProtKB P30543.
QUANTITY: Ki (nM)

{"COMPOUND": "Cc1ccc(/C=N/Nc2nc(N)c3ncn(C4O[C@H](CO)[C@@H](O)[C@H]4O)c3n2)cc1 (some centres undefined)", "MEASURED ON": "UniProtKB P30543", "UNIT ANNOTATION": "nM", "Ki": 29}

(I) Nc1nc(N/N=C/c2ccco2)nc2c1ncn2[C@@H]1O[C@H](CO)[C@@H](O)[C@H]1O
(II) COc1cc(/C=C/C=N/Nc2nc(N)c3ncn([C@@H]4O[C@H](CO)[C@@H](O)[C@H]4O)c3n2)ccc1O
Inquiry: Of the two listed items, which has the higher Ki? First: I Second: II Use the label to indicate which entry you chose.
Reply text: I
